Recorded GI50 for the following compounds
- System: Malme-3M
- method_description: NCI tumour cell line growth inhibition, 48 h
Calls of active or inactive are those of the source. No stated cut-off is given here; in the data, active = GI50 up to about 1.1 µM and inactive = higher.
measurement_label: GI50

compound	measurement_label	reported_measurement
N=C(N)NCC[C@H](NC(=O)OCCCCCn1ccc(=O)[nH]c1=O)C(=O)O	GI50	> 100 µM (inactive)
O=C1/C(=C\c2cccc(Oc3ccccc3)c2)SC(c2ccccc2)N1c1cccc(Cl)c1 (stereo not given)	GI50	> 100 µM (inactive)
CC(CNC(=O)c1ccccc1)(CNC(=O)c1ccccc1)[N+](=O)[O-]	GI50	> 100 µM (inactive)
CC(C)C/C(CC(=O)CCC(=O)Nc1ccccc1[N+](=O)[O-])=N\NC(=O)c1cc2ccccc2cc1O	GI50	42.6 µM (inactive)
CC12CC(c3ccccc3O1)C(C(=O)Nc1ccc(F)cc1)C(=O)N2 (stereo not given)	GI50	> 100 µM (inactive)
C=C(C(=O)OC)[C@H]1CC/C(C)=C/CC/C(C)=C/CC[C@@]2(C)O[C@@H]2C1	GI50	25.1 µM (inactive)
COC(=O)C(CCCN1C(=O)c2ccccc2C1=O)C(=O)OC	GI50	> 100 µM (inactive)
NC(=S)N/N=C/c1ncccc1N	GI50	1.87 µM (inactive)
N/N=c1\c2ccccc2c2cc3c(cc12)/c(=N/N)c1ccccc13	GI50	> 100 µM (inactive)
CCNC(=S)/N=c1\sc(NCC)nc2sc3c(c12)CCN(N1CCc2c(sc4nc(NCC)s/c(=N\C(=S)NCC)c24)C1)C3	GI50	> 100 µM (inactive)

Entry source: ChEMBL document CHEMBL1201862
